- targetOrSystem: T1, mouse PAI-1 (mouse, UniProt P22777 24-401)
- T1 sequence: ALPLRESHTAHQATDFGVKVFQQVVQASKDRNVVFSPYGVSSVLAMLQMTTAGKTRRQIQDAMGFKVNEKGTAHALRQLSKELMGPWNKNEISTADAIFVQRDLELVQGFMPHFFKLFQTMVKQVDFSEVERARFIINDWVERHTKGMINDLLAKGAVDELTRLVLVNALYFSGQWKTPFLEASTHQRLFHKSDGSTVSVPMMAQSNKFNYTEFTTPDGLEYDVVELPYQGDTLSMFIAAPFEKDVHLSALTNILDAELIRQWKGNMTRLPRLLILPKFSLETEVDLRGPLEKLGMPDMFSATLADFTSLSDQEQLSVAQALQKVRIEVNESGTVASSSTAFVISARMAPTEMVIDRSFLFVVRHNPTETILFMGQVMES
- measurementProtocol: cell-based or functional assay
Catalogue of HT-1080 Exo PAI-1 (IC50 in nM) mouse readings, one per entry.
Value expressed in nM; do not type the unit.

>>> assayresult("Antibody 27 scFv (scFv) QVQLQQSGAEVKKPGSSVKVSCKASGGAFSSYAISWVRQAPGQGLEWMGGIIPTFGTANYAQKFQGRVTITADESTSTAYMELSGLRSEDTAVYYCAREKRQWLEGHFDYWGRGTPVTVSSDIQMTQSPSFLSASIGDRVTITCRASEGIYHNLAWYQQKPGKAPKLLIYRASSLASGAPSRFSGSGSGTDFTLTISSLQPDDFATYYCQQYSNYPLTFGGGTKLEIK")
16.4
>>> assayresult("Antibody 16 scFv (scFv) QVQLVQSGAEVKKPGSSVKVSCKASGGTFSSYAISWVRQAPGQGLEWMGGIIPTFGTANYAQKFQGRVTITADESTSTAYMELSSLRSEDTAVYYCAREKRQWLEGHFDYWGRGTLVTVSSDIQMTQSPSTLSASVGDRVTITCRASESIYHSLAWYQQKPGKAPKLLIYKASSLASGVPSRFSGSRSGTEFTLTISSLQPDDFATYYCQQYSNYPLTFGGGTKVEIK")
17.6
>>> assayresult("Antibody 14 scFv (scFv) QVQLQQSGAEVKKPGSSVKVSCKASGGTFSSYAISWVRQAPGQGLEWMGGIIPTFGTANYAQKFQGRVTITADESTSTAYMELSGLRSEDTAVYYCAREKRQWLEGHFDYWGRGTLVTVSSDIQMTQSPSFLSASIGDRVTITCRASEGIYHNLAWYQQKPGKAPKLLIYRASSLASGAPSRFSGSGSGTDFTFTISSLQPDDFATYYCQQYSNYPLTFGGGTKLEIK")
22
>>> assayresult("Antibody 01 scFv (scFv) QVQLVQSGAEVKKPGSSVKVSCKASGGTFSSYAISWVRQAPGQGLEWMGGIIPIFGTANYAQKFQGRVTITADESTSTAYMELSSLRSEDTAVYYCAREKRQWLEGHFDYWGRGTLVTVSSDIQMTQSPSTLSASVGDRVTITCRASEGIYRSLAWYQQKPGKAPKLLIYKASSLASGVPSRFSGSGSGTEFTLTISSLQPDDFATYYCQQYSNYPLTFGGGTKVEIK")
34.5

With those in mind, consider the next binder.
Given the binder Antibody 09 scFv (scFv) QVQLQQSGAEVKKPGSSVKVSCKASGGTFSSYAISWVRQAPGQGLEWMGGIIPAFDTANYAQKFQGRVTITADESTSTAYMELSGLRSEDTAVYYCAREKRQWLEGHFDYWGRGTPVTVSSDIQMTQSPSFLSASIGDRVTITCQASEGIYHNLAWYQQKPGKAPKLLIYRASSLASGAPSRFSGSGSGTDFTLTISSLQPDDFATYYCQQYSNYPLTFGGGTKLEIK , what is its reported HT-1080 Exo PAI-1 (IC50 in nM) mouse? 21
